# Test system: SK-MEL-28
# experiment-description: Growth inhibition of human SK-MEL-28 cells assessed as cell growth at 10^-5 M incubated for 48 hrs by sulforhodamine B assay relative to control
# Assay type: functional
# conditions: SK-MEL-28, 48 h, read-out: Activity
Hi there, I'd appreciate the recorded growth at 10 µM for every entry that follows.
Remember to follow the number with its unit.

Form: item O=C1Nc2ccccc2/C1=C/c1cccn1CCCCCn1c2ccccc2c(=O)c2ccccc21 ; test system SK-MEL-28; growth at 10 µM: 88.1%

Kindly note: SK-MEL-28, O=C1Nc2ccccc2/C1=C/c1cccn1CCCCn1c2ccccc2c(=O)c2ccccc21 , growth at 10 µM value reported: 105%

Item O=C1NC(=O)C(=Cc2cccn2CCCCCCn2c3ccccc3c(=O)c3ccccc32)C(=O)N1 was tested on SK-MEL-28; the reported growth at 10 µM is 111%

Tested system SK-MEL-28; growth at 10 µM recorded for O=C1NC(=O)C(=Cc2cccn2CCCn2c3ccccc3c(=O)c3ccccc32)C(=O)N1 was 110%

# growth at 10 µM measured on SK-MEL-28 for item O=C1/C(=C\c2cccn2CCCCCn2c3ccccc3c(=O)c3ccccc32)c2ccccc2N1c1c(Cl)cccc1Cl = 113%

Summary line: O=C1NC(=O)C(=Cc2cccn2CCCCn2c3ccccc3c(=O)c3ccccc32)C(=O)N1 , SK-MEL-28, reported growth at 10 µM = 95.8%

Reported SK-MEL-28 growth at 10 µM for item O=C1/C(=C\c2cccn2CCCCn2c3ccccc3c(=O)c3ccccc32)c2ccccc2N1c1c(Cl)cccc1Cl was 111%

The reported SK-MEL-28 growth at 10 µM of O=C1NC(=O)C(=Cc2cccn2CCCCCn2c3ccccc3c(=O)c3ccccc32)C(=O)N1 is 111%

Considering O=C1/C(=C\c2cccn2CCCCCCn2c3ccccc3c(=O)c3ccccc32)c2ccccc2N1c1c(Cl)cccc1Cl , its growth at 10 µM with SK-MEL-28 was recorded as 108%

Entry O=C1Nc2ccccc2/C1=C/c1cccn1CCCCCCn1c2ccccc2c(=O)c2ccccc21 , tested on SK-MEL-28, has a reported growth at 10 µM of 111%
